- Test system: Enterovirus A71
- Test Name: Anti-viral activity against Enterovirus A71 MP4 infected in human RD cells assessed as reduction in virus induced cytopathic effect incubated for 3 days by CPE assay
- Format: functional, organism-based
- Cond: Enterovirus A, 72 h
Measure: EC50 (nM)

>>> print(df.to_string())
                               given_smiles  measure  reported
0  CC(C)n1ncc2c(C(=O)NCCN(C)C)cc(C3CC3)nc21     EC50       100

---

- System: Coxsackievirus B3
- Test Name: Anti-viral activity against Coxsackievirus B3 infected in green monkey Vero cells assessed as reduction in virus induced cytopathic effect incubated for 3 days by CPE assay
- Type: functional, organism-based
- Cond: Enterovirus B, 72 h
Listing: EC50 of selected compounds
Measure: EC50 (nM)

In [3]: df
Out[3]:
                               given_smiles  unit_label  reported
0       CNCCNC(=O)c1cc(C2CC2)nc2c1cnn2C(C)C          nM       200
1  Cc1cc(C(=O)NCCN(C)C)c2c(C)nn(C(C)(C)C)c2n1          nM      2100
